System: 556581-035-R-J1-PDC complex spheroid growth
Test: Anticancer human tumor 556581-035-R-J1-PDC patient-derived ovarian carcinoma cell line growth inhibition [AhR]
Conditions: second compound 0.316 µM; first compound 0.1 µM; hits give low values
From the text: Multicellular complex tumor spheroid response to aryl hydrocarbon receptor antagonists in combination with a variety of drugs and investigational agents in selected tumor cell lines […] Compounds. […] If the clinical Cmax for an agent had not been determined, the highest concentration tested was 10 microM (Table 1). […]
Quantity Kind: viability, T/C (%)

1) CC1(C)CCC(CN2CCN(c3ccc(C(=O)NS(=O)(=O)c4ccc(NCC5CCOCC5)c([N+](=O)[O-])c4)c(Oc4cnc5[nH]ccc5c4)c3)CC2)=C(c2ccc(Cl)cc2)C1 + CC(CO)NC(=O)c1cc(-c2ccc(Cl)cc2)nn(-c2cnn(C)c2)c1=O | 116
2) CC1COCCN1c1cc(C2(S(C)(=N)=O)CC2)nc(-c2ccnc3[nH]ccc23)n1 (stereo not drawn) + Cc1ccccc1N=Nc1ccc(NC(=O)c2ccnn2C)c(C)c1 | 99.2
3) Nc1ccn(C2OC(CO)C(O)C2(F)F)c(=O)n1 (stereo not drawn) + Cc1ccccc1N=Nc1ccc(NC(=O)c2ccnn2C)c(C)c1 | 37.4

* * *

The entries below come with measured viability, T/C values attached.
system: 556581-035-R-J1-PDC complex spheroid growth; test: Anticancer human tumor 556581-035-R-J1-PDC cell line growth inhibition [AhR]; details: second compound 1 µM; first compound 0.001 µM; hits give low values;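 note: compound exposure lasted 7 days; 100% = DMSO vehicle control growth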
Quantity Kind: viability, T/C (%)

1. Cn1ncnc1C1c2n[nH]c(=O)c3cc(F)cc(c23)NC1c1ccc(F)cc1 (stereo unspecified) + CC(CO)NC(=O)c1cc(-c2ccc(Cl)cc2)nn(-c2cnn(C)c2)c1=O | 105
2. CC[C@@]1(O)C(=O)OCc2c1cc1n(c2=O)Cc2cc3c(CN(C)C)c(O)ccc3nc2-1 + Cc1cncc(-c2nc(NCCc3c[nH]c4ccccc34)c3ncn(C(C)C)c3n2)c1 | 115
3. Cn1ncnc1C1c2n[nH]c(=O)c3cc(F)cc(c23)NC1c1ccc(F)cc1 (stereo unspecified) + Cc1ccccc1N=Nc1ccc(NC(=O)c2ccnn2C)c(C)c1 | 99.6
4. CC[C@@]1(O)C(=O)OCc2c1cc1n(c2=O)Cc2cc3c(CN(C)C)c(O)ccc3nc2-1 + Cc1ccccc1N=Nc1ccc(NC(=O)c2ccnn2C)c(C)c1 | 93.7
5. CC[C@@]1(O)C(=O)OCc2c1cc1n(c2=O)Cc2cc3c(CN(C)C)c(O)ccc3nc2-1 + CC(CO)NC(=O)c1cc(-c2ccc(Cl)cc2)nn(-c2cnn(C)c2)c1=O | 110
6. Cn1ncnc1C1c2n[nH]c(=O)c3cc(F)cc(c23)NC1c1ccc(F)cc1 (stereo unspecified) + Cc1cncc(-c2nc(NCCc3c[nH]c4ccccc34)c3ncn(C(C)C)c3n2)c1 | 104

* * *

System: 556581-035-R-J1-PDC complex spheroid growth
Assay: Anticancer human tumor 556581-035-R-J1-PDC cell line growth inhibition [AhR];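 note: compound exposure lasted 7 days; 100% = DMSO vehicle control growth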
Conditions: second compound 0.1 µM; first compound 0.1 µM; hits give low values
Source text: Multicellular complex tumor spheroid response to aryl hydrocarbon receptor antagonists in combination with a variety of drugs and investigational agents in selected tumor cell lines […] Compounds. […] If the clinical Cmax for an agent had not been determined, the highest concentration tested was 10 microM (Table 1). […]
Quantity Kind: viability, T/C (%)

1. Nc1ccn(C2OC(CO)C(O)C2(F)F)c(=O)n1 (centres undefined) + Cc1cncc(-c2nc(NCCc3c[nH]c4ccccc34)c3ncn(C(C)C)c3n2)c1 | 34.5
2. O=C(C=Cc1cccc(S(=O)(=O)Nc2ccccc2)c1)NO + Cc1ccccc1N=Nc1ccc(NC(=O)c2ccnn2C)c(C)c1 | 113
3. CC[C@@]1(O)C(=O)OCc2c1cc1n(c2=O)Cc2cc3c(CN(C)C)c(O)ccc3nc2-1 + CC(CO)NC(=O)c1cc(-c2ccc(Cl)cc2)nn(-c2cnn(C)c2)c1=O | 51.7
4. CC[C@@]1(O)C(=O)OCc2c1cc1n(c2=O)Cc2cc3c(CN(C)C)c(O)ccc3nc2-1 + Cc1ccccc1N=Nc1ccc(NC(=O)c2ccnn2C)c(C)c1 | 50.6

* * *

tested on: 556581-035-R-J1-PDC complex spheroid growth; assay: Anticancer human tumor 556581-035-R-J1-PDC cell line growth inhibition [AhR]; settings: second compound 0.316 µM; first compound 0.1 µM; hits give low values;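 note: compound exposure lasted 7 days; 100% = DMSO vehicle control growth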
Quantity Kind: viability, T/C (%)

1) COc1cc(C2c3cc4c(cc3C(OC3OC5COC(C)OC5C(O)C3O)C3COC(=O)C23)OCO4)cc(OC)c1O (stereo unspecified) + CC(CO)NC(=O)c1cc(-c2ccc(Cl)cc2)nn(-c2cnn(C)c2)c1=O | 102
2) CC1COCCN1c1cc(-c2ccnn2C)c2ccnc(-c3ccn[nH]3)c2n1 (stereo unspecified) + Cc1ccccc1N=Nc1ccc(NC(=O)c2ccnn2C)c(C)c1 | 76.8
3) CC(C)c1c(-c2ccccc2)nc2c(C#N)c[nH]n2c1=O + Cc1ccccc1N=Nc1ccc(NC(=O)c2ccnn2C)c(C)c1 | 94.1
4) O=C(c1cc(Cc2n[nH]c(=O)c3ccccc23)ccc1F)N1CCN(C(=O)C2CC2)CC1 + Cc1cncc(-c2nc(NCCc3c[nH]c4ccccc34)c3ncn(C(C)C)c3n2)c1 | 105
5) Nc1ccccc1NC(=O)c1ccc(CNC(=O)OCc2cccnc2)cc1 + Cc1ccccc1N=Nc1ccc(NC(=O)c2ccnn2C)c(C)c1 | 102
6) Nc1ccn(C2OC(CO)C(O)C2(F)F)c(=O)n1 (stereo unspecified) + CC(CO)NC(=O)c1cc(-c2ccc(Cl)cc2)nn(-c2cnn(C)c2)c1=O | 35.2

* * *

tested on: 556581-035-R-J1-PDC complex spheroid growth; test: Anticancer human tumor 556581-035-R-J1-PDC cell line growth inhibition [AhR]; conditions: second compound 0.316 µM; first compound 0.1 µM; hits give low values;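 note: compound exposure lasted 7 days; 100% = DMSO vehicle control growth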
Quantity Kind: viability, T/C

1. Cn1ncnc1C1c2n[nH]c(=O)c3cc(F)cc(c23)NC1c1ccc(F)cc1 (stereo unspecified) + CC(CO)NC(=O)c1cc(-c2ccc(Cl)cc2)nn(-c2cnn(C)c2)c1=O | 93.4%
2. Nc1ncn(C2CC(O)C(CO)O2)c(=O)n1 (stereo unspecified) + Cc1cncc(-c2nc(NCCc3c[nH]c4ccccc34)c3ncn(C(C)C)c3n2)c1 | 87%
3. CC[C@@]1(O)C(=O)OCc2c1cc1n(c2=O)Cc2cc3c(CN(C)C)c(O)ccc3nc2-1 + Cc1ccccc1N=Nc1ccc(NC(=O)c2ccnn2C)c(C)c1 | 54.9%
4. COc1cc(C2c3cc4c(cc3C(OC3OC5COC(C)OC5C(O)C3O)C3COC(=O)C23)OCO4)cc(OC)c1O (stereo unspecified) + Cc1cncc(-c2nc(NCCc3c[nH]c4ccccc34)c3ncn(C(C)C)c3n2)c1 | 107%
5. CC1COCCN1c1cc(C2(S(C)(=N)=O)CC2)nc(-c2ccnc3[nH]ccc23)n1 (stereo unspecified) + Cc1cncc(-c2nc(NCCc3c[nH]c4ccccc34)c3ncn(C(C)C)c3n2)c1 | 97.9%
6. O=C(c1cc(Cc2n[nH]c(=O)c3ccccc23)ccc1F)N1CCN(C(=O)C2CC2)CC1 + Cc1ccccc1N=Nc1ccc(NC(=O)c2ccnn2C)c(C)c1 | 88.2%

* * *

Tested on: 556581-035-R-J1-PDC complex spheroid growth
Test: Anticancer human tumor 556581-035-R-J1-PDC cell line growth inhibition [AhR];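 note: compound exposure lasted 7 days; 100% = DMSO vehicle control growth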
Details: second compound 0.316 µM; first compound 1 µM; hits give low values
From the text: Multicellular complex tumor spheroid response to aryl hydrocarbon receptor antagonists in combination with a variety of drugs and investigational agents in selected tumor cell lines […] Compounds. […] If the clinical Cmax for an agent had not been determined, the highest concentration tested was 10 microM (Table 1). […]
Quantity Kind: viability, T/C (%)

1) CC(C)c1c(-c2ccccc2)nc2c(C#N)c[nH]n2c1=O + Cc1cncc(-c2nc(NCCc3c[nH]c4ccccc34)c3ncn(C(C)C)c3n2)c1 | 108
2) O=C(C=Cc1cccc(S(=O)(=O)Nc2ccccc2)c1)NO + Cc1cncc(-c2nc(NCCc3c[nH]c4ccccc34)c3ncn(C(C)C)c3n2)c1 | 69.6
3) O=C(c1cc(Cc2n[nH]c(=O)c3ccccc23)ccc1F)N1CCN(C(=O)C2CC2)CC1 + CC(CO)NC(=O)c1cc(-c2ccc(Cl)cc2)nn(-c2cnn(C)c2)c1=O | 89.3

* * *

system: 556581-035-R-J1-PDC complex spheroid growth; experiment: Anticancer human tumor 556581-035-R-J1-PDC cell line growth inhibition [AhR]; conditions: second compound 1 µM; first compound 0.03 µM; hits give low values;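 note: compound exposure lasted 7 days; 100% = DMSO vehicle control growth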
Quantity Kind: viability, T/C (%)

1) CCN(c1cc(-c2ccc(CN3CCOCC3)cc2)cc(C(=O)NCc2c(C)cc(C)[nH]c2=O)c1C)C1CCOCC1 + Cc1ccccc1N=Nc1ccc(NC(=O)c2ccnn2C)c(C)c1 | 85.6
2) CCc1c2c(nc3ccc(O)cc13)-c1cc3c(c(=O)n1C2)COC(=O)[C@]3(O)CC + Cc1ccccc1N=Nc1ccc(NC(=O)c2ccnn2C)c(C)c1 | 41.5
3) CCc1c2c(nc3ccc(O)cc13)-c1cc3c(c(=O)n1C2)COC(=O)[C@]3(O)CC + Cc1cncc(-c2nc(NCCc3c[nH]c4ccccc34)c3ncn(C(C)C)c3n2)c1 | 27.1
4) Nc1ncn(C2CC(O)C(CO)S2)c(=O)n1 (stereo unspecified) + Cc1ccccc1N=Nc1ccc(NC(=O)c2ccnn2C)c(C)c1 | 91.5
5) CC(C)CC(NC(=O)C(Cc1ccccc1)NC(=O)c1cnccn1)B(O)O (stereo unspecified) + CC(CO)NC(=O)c1cc(-c2ccc(Cl)cc2)nn(-c2cnn(C)c2)c1=O | 0.19
6) Nc1ncn(C2CC(O)C(CO)S2)c(=O)n1 (stereo unspecified) + CC(CO)NC(=O)c1cc(-c2ccc(Cl)cc2)nn(-c2cnn(C)c2)c1=O | 121

Data credit: PubChem BioAssay AID1918999
